biological target: human cannabinoid receptor 1 (huCB1), full length, expressed on cells (human, UniProt P21554 1-472); experiment: cell-based or functional assay
Sequence (P21554 whole entry): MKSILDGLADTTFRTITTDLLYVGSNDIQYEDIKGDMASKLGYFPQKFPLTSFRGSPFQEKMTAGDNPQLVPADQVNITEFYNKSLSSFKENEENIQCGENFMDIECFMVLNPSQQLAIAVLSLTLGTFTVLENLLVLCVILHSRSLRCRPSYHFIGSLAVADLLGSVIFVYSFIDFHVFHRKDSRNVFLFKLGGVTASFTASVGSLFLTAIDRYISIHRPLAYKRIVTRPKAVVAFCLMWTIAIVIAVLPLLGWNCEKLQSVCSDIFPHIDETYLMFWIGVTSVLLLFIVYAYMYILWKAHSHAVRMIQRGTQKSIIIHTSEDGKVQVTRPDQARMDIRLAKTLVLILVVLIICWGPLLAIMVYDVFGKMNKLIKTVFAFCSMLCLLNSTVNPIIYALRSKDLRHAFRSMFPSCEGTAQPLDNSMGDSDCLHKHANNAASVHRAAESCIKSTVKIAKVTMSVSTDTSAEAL
Exercise: state measured n = 2 IC50 (nM), cAMP antagonist assay for each of the binders provided.
Give the number; nM is assumed, so skip it.

Q: Query (binder): LIBC523969-1 (antibody, V domains shown) VH: QVQLQESGPGLVKPSQTLSLTCTVSGGSIRRGGDYWSWIRQHPGKGLEWIGHIYQTGQTKYNPNLKGRATISVNTYKNQFSLKLSSVTAADTAVYYCARDYDILTGYSYYYYGMDVWGQGTTVTVSS VL: DIVMTQSPLSLPVTPGEPASISCRSSQSLLSSTGANYLDWYLQKPGQSPQLLIYQGSNRASGVPDRFSGSGSGTDFTLKISRVEAEDVGVYYCRQAVGLPRTFGQGTKVEIKR ; field requested: n = 2 IC50 (nM), cAMP antagonist assay
Ans: 1.26

Q: One more binder: LIBC527997-1 (antibody, V domains shown, Expressed as IgG1 SEFL2 mAb) VH: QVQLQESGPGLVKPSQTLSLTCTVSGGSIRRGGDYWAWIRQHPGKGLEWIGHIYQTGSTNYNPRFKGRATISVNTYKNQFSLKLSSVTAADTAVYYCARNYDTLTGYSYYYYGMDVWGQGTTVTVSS VL: DIQMTQSPSSLSASVGDRVTITCRASQSISNYLNWYQQKPGKAPKLLIYAASSLHSGVPSRFSGSGSGTDFTLTISSLQPEDFASYYCQQYQSYPLTFGQGTKVEIKR
Ans: 1.57

Q: One more binder: LIBC523813-1 (antibody, V domains shown) VH: QVQLQESGPGLVKPSQTLSLTCTVSGGSIRRGGDYWSWIRQHPGKGLEWIGHVYYTGQTAYNPKFKDRATISVKTYKNQFSLKLSSVTAADTAVYYCARDYDILTGYSYYYYGMDVWGQGTTVTVSS VL: DIVMTQSPLSLPVTPGEPASISCRSSQSLLSSSGANYVDWYLQKPGQSPQLLIYLGSNRASGVPDRFSGSGSGTDFTLKISRVEAEDVGVYYCMQARGIPRTFGQGTKVEIKR
Ans: 2.94
